Reported residual activity values for the following compounds.
Molecular target: CDK5 CDK5R1 p35 (human) (UniProt Q00535+Q15078)
Test: radiometric filter-binding kinase assay, Kinase HotSpot
Conditions: compound 0.5 µM; ATP 10 µM
Give a bare numeral; the unit % is implied.

Use the examples below as a reference point.
Returns the measured residual activity for the input compound. Input: "COc1cc2ncnc(Nc3cccc(Cl)c3)c2cc1OC"
91

Which residual activity is reported for this compound? "O=c1cc(N2CCOCC2)oc2c1ccc1ccccc12"
96.7

Form field: reported residual activity of "O=C1NC(=O)/C(=C/c2ccc3c(c2)OC(F)(F)O3)S1"
103

New cases:
// lookup residual activity for "CC(C)N(CCC(=O)c1ccc2ccccc2c1)Cc1ccccc1"
103

Which value of residual activity has been reported for "Cc1ccc(NC2=CC(=O)c3sc(C)nc3C2=O)cc1" in the records?
86.3

###

Biological target: RPS6KA1 KD1 KD2 (human) (UniProt Q15418)
Sequence (Q15418 whole entry, looked up): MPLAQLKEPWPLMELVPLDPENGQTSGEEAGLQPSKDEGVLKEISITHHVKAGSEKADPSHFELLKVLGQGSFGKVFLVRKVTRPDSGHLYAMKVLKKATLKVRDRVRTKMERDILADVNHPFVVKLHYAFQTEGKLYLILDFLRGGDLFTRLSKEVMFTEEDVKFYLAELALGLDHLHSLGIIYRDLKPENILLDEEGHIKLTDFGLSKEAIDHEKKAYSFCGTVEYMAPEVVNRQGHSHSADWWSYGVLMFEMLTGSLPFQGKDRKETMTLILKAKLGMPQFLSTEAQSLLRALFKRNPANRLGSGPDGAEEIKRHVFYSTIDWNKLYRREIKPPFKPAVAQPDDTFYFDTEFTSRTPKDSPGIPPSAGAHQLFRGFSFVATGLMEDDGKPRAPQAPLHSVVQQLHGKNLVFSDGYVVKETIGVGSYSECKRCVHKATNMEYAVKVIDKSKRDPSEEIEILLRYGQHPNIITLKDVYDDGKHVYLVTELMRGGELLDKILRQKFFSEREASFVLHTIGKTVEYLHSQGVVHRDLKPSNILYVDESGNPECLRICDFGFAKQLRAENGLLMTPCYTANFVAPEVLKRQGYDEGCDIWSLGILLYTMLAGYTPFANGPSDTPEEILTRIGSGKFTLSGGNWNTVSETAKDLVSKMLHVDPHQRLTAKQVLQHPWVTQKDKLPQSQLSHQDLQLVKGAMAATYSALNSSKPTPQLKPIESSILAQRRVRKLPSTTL
Experiment: radiometric filter-binding kinase assay, Kinase HotSpot
Details: compound 0.5 µM; ATP 10 µM
recorded metric: residual activity (%)
Respond numerically; units are % and should not be typed.

Before answering, review these 8 worked examples.
Query: residual activity; subject: "Cc1ccc(Nc2nccc(N(C)c3ccc4c(C)n(C)nc4c3)n2)cc1S(N)(=O)=O"
92.8

Need residual activity, item "Cc1ccc(NC2=CC(=O)c3sc(C)nc3C2=O)cc1"
102

Using the record for "Nc1ccc2ncnc(NCCc3ccc(Oc4ccccc4)cc3)c2c1" , report its residual activity.
108

Give the measured residual activity of "O=S(=O)(c1cccc2cnccc12)N1CCCNCC1" .
89.2

# query: residual activity of entry "CCOC(=O)c1c(C)[nH]c(/C=C2\C(=O)Nc3ccccc32)c1C"
77.6

# residual activity lookup, item "CC#CC(=O)Nc1cc2c(Nc3ccc(F)c(Cl)c3)ncnc2cn1"
95.1

Give its residual activity value. Item: "Nc1cccc(-c2cc3c(Oc4cccc(O)c4)ncnc3[nH]2)c1"
105

Record request: residual activity value, item "CC(=O)c1ccc(N2CCOCC2)cc1O"
92.4

---
Query (compound): "Oc1cccc(-c2nc(N3CCOCC3)c3oc4ncccc4c3n2)c1" ; field requested: residual activity
79.5

Any idea what its residual activity is? The compound is "O=c1cc(N2CCOCC2)oc2c1ccc1ccccc12"
92

What does the data say about its residual activity? Entry: "Cc1ccc(S(=O)(=O)/C=C/C#N)cc1"
91.6

I have this compound here, "CCN(CC)CCNC(=O)c1c(C)[nH]c(/C=C2\C(=O)Nc3ccc(F)cc32)c1C" , and I need its recorded residual activity.
28

Return reported residual activity; argument: "CNc1cc2c(Nc3cccc(Br)c3)ncnc2cn1"
90.9

Which residual activity value is on record for "CC(C)N(CCC(=O)c1ccc2ccccc2c1)Cc1ccccc1" ?
97.6

Form field: reported residual activity of "Nc1ncnc2c1c(-c1ccc(Oc3ccccc3)cc1)cn2C1CCCC1"
94.2

Would you kindly share the measured residual activity for "O=C1NC(=O)c2c1c1c3ccccc3n3c1c1c2c2ccccc2n1C1CCC3O1" ?
1.58

###

Target: PRKCH (human) (UniProt P24723)
Sequence (P24723 whole entry, looked up): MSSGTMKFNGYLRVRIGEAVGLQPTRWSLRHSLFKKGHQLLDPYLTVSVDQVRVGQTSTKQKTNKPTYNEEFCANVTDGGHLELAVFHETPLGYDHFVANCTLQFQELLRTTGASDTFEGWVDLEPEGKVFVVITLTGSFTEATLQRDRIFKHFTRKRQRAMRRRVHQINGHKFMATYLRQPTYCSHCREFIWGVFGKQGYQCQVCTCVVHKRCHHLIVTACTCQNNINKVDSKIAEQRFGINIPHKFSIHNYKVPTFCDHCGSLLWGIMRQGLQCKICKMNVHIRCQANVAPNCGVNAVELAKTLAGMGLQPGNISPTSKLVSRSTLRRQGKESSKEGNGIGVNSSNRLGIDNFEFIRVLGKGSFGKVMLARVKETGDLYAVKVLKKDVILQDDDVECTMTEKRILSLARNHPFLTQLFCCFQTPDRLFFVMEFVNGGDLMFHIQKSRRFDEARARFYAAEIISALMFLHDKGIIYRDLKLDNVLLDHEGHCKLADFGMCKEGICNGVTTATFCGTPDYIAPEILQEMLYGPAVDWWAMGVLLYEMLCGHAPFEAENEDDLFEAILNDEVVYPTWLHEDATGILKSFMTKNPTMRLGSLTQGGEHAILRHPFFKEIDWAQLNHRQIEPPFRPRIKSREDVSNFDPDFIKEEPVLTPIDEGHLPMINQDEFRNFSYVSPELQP
Assay: radiometric filter-binding kinase assay, Kinase HotSpot
Settings: compound 0.5 µM; ATP 10 µM
recorded metric: residual activity (%)
Quick note: give the figure in %, leave out the unit.

For orientation, consider the following solved cases.
Test system PRKCH (human) (UniProt P24723); read-out residual activity; what value for "O=C1NC(=O)C(c2cn(CCCn3ccnc3)c3ccccc23)=C1Nc1ccccc1" ?
29.7

Query residual activity on PRKCH (human) (UniProt P24723) for "CC(C)n1cnc2c(NCc3ccccc3)nc(NCCCO)nc21"
77

More entries:
Query for PRKCH (human) (UniProt P24723): what residual activity does the record show for "CCN(CC)CCNC(=O)c1c(C)[nH]c(/C=C2\C(=O)Nc3ccc(F)cc32)c1C" ?
112

Lab note: need residual activity with PRKCH (human) (UniProt P24723) for entry "CCCC(=O)Oc1ccc2[nH]c(C(=O)c3cc4ccccc4[nH]3)cc2c1" , please look it up.
93.6

Missing value: residual activity, PRKCH (human) (UniProt P24723), entry CO[C@H]1CC2CC[C@@H](C)[C@@](O)(O2)C(=O)C(=O)N2CCCC[C@H]2C(=O)OC([C@H](C)C[C@@H]2CC[C@@H](O)[C@H](OC)C2)CC(=O)[C@H](C)/C=C(\C)[C@@H](O)[C@@H](OC)C(=O)[C@H](C)C[C@H](C)/C=C/C=C/C=C/1C (stereo not given in full) . Fill in?
104

Please provide the recorded residual activity for "Nc1cccc(-c2cc3c(Oc4cccc(O)c4)ncnc3[nH]2)c1" , tested on PRKCH (human) (UniProt P24723).
90

Any idea what residual activity came out for "O=c1cc(N2CCOCC2)oc2c1ccc1ccccc12" on PRKCH (human) (UniProt P24723)?
94.7

Recorded residual activity for "O=[N+]([O-])/C=C/c1ccc2c(c1)OCO2" with PRKCH (human) (UniProt P24723), please?
103

Please state recorded residual activity (tested on PRKCH (human) (UniProt P24723)) of "CO[C@H]1[C@@H](OC)C[C@H](C)[C@@H](OC)C2=CC(=O)C=C(NC(=O)/C(C)=C\C=C/[C@H](OC)[C@@H](OC(N)=O)/C(C)=C\[C@@H]1C)C2=O"
95.3

Enter reported residual activity observed with PRKCH (human) (UniProt P24723) for "CNc1cc2c(Nc3cccc(Br)c3)ncnc2cn1"
95.7

Value wanted: residual activity (PRKCH (human) (UniProt P24723)) of entry "Cc1cc(C)c(/C=C2\C(=O)Nc3ccccc32)[nH]1"
94.7

Each recorded value in this set is attributed to the kinase profiling compilation of Christmann-Franck et al. (2016).
